tested on: Puccinia recondita f. sp. tritici; assay: Puccinia recondita f. sp. tritici / wheat / leaf disc preventative (brown rust); type: in vivo; settings: foliar, wheat leaf segments cv Kanzler, inoculated 1 day after application, assessed 7-9 days after application
value-kind: pest or weed control at 200 ppm

Entry C/C(=N\OCC1(CO/N=C2\CCCc3c2nc2ccccc2c3C)CC1)c1cc(C)cc(C)n1 has what pest or weed control at 200 ppm?
≥ 80%

# get_value(readout='pest or weed control at 200 ppm', item= C/C(=N\OCC(C)(C)CO/N=C1\CCCc2ccc(C)nc21)c1ccc2c(n1)CCCC2 )
≥ 80%

I'd like to know its pest or weed control at 200 ppm. The compound in question is Cc1ccc2c(n1)/C(=N/OCC(C)(C)CO/N=C(\c1ccncc1)c1ccccn1)CCC2
≥ 80%

Which pest or weed control at 200 ppm is listed for COc1cccc(/C(C)=N/OCC(C)(C)CO/N=C2\CCCc3ccc(C)nc32)n1 ?
≥ 80%

Record request: pest or weed control at 200 ppm value, item C/C(=N\OCC(C)(C)CO/N=C1\CCCc2ccc(C)nc21)c1cccc(-c2ccccc2Cl)n1
≥ 80%

Could you share which pest or weed control at 200 ppm value was measured for Cc1cccc(/C(=N/OCC(C)(C)CO/N=C2\CCCc3ccc(C)nc32)c2ccccc2)n1 ?
≥ 80%

What does the record list as pest or weed control at 200 ppm for C/C(=N\OCC1(CO/N=C2\CCCc3ccc(C)nc32)CC1)c1cc(C)cc(C)n1 ?
≥ 80%

I would be grateful if you could share the reported pest or weed control at 200 ppm for C/C(=N\OCC(C)(C)CO/N=C1\CCCc2ccc(C)nc21)c1cccc(Br)n1 .
≥ 80%

Record request: pest or weed control at 200 ppm value, item C/C(=N\OCC(C)(C)CO/N=C1\CCCc2ccc(C)nc21)c1cc(C)cc(C)n1
≥ 80%

Consider the compound Cc1ccc2c(n1)/C(=N/OCC(C)(C)CO/N=C/c1ccc3ccccc3n1)CCC2 and give its measured pest or weed control at 200 ppm.
≥ 80%
